Ref: patent US20200283478A1

// values below are reported pIC50
target: T1, His-tagged, full-length PCSK9 (human, UniProt Q8NBP7 31-692); experiment: TR-FRET competition; His-PCSK9, competitor EGF(A)-Fc
T1 construct: The secreted protein is autocleaved into a prodomain and a catalytic/Cys-rich chain that starts at S153; also called His-PCSK9
T1 sequence (Q8NBP7 other isoform, or with tags, fused parts or gaps limits assumed): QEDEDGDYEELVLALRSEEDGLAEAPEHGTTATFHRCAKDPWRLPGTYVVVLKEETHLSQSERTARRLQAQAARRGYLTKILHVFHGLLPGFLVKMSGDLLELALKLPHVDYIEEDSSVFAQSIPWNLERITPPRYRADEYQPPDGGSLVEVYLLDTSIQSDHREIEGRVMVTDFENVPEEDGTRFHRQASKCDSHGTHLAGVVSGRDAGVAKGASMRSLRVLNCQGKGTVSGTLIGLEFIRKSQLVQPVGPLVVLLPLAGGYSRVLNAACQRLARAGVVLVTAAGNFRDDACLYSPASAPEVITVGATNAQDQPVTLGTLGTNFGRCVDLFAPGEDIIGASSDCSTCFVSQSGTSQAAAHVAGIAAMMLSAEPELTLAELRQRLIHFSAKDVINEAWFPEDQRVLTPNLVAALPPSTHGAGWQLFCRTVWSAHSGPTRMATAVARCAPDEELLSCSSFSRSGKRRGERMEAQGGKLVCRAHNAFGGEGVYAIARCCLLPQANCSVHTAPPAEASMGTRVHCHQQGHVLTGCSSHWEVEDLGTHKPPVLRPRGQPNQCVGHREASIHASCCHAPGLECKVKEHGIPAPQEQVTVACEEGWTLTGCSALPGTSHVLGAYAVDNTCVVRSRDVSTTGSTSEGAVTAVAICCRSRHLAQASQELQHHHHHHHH
pIC50: −log10 of the molar value. Square brackets hold non-standard residues; d marks the D form. Ends that are not written are not given here. hArg = N=C(N)NCCCC[C@H](N)C(=O)O
Observed Property: pIC50

- Binder: "Ac-ESYPGWNLVRIGLLR-NH2 [Compound 156]"
  Observed Property: "pIC50"
  Inequality Operator: "="
  Result Value: 4.96
- Binder: "WNLVRIGLTR (also: further groups not given here, Structure printed only as a drawing) [Compound 172]"
  Observed Property: "pIC50"
  Inequality Operator: "≤"
  Result Value: 4.30
- Binder: "WNLV[hArg]IGLLR (also: end groups and other groups only in drawing, Structure printed only as a drawing) [Compound 201]"
  Observed Property: "pIC50"
  Inequality Operator: "="
  Result Value: 5.41
- Binder: "WNLVRIGLLR (also: further groups not given here, Structure printed only as a drawing) [Compound 141]"
  Observed Property: "pIC50"
  Inequality Operator: "≤"
  Result Value: 4.30
- Binder: "WNLVRIGTLR (also: further groups not given here, Structure printed only as a drawing) [Compound 183]"
  Observed Property: "pIC50"
  Inequality Operator: "="
  Result Value: 4.74
- Binder: "WNLVRIGLLR (also: further groups not given here, Structure printed only as a drawing) [Compound 126]"
  Observed Property: "pIC50"
  Inequality Operator: "≤"
  Result Value: 4.30
